# System: 855422-203-R-J1-PDC complex spheroids, viability
# Protocol: Anticancer human tumor 855422-203-R-J1-PDC patient-derived bladder carcinoma cell line growth inhibition [CLK]; active means viability on the fitted dose curve at most 10% of control; inactive means the rest
# Condition Details: second compound 0.0316 µM; first compound 1 µM
Result category, one only: active, inactive

Would you mind telling me which call this test gave COc1cccc2c1C(=O)c1c(O)c3c(c(O)c1C2=O)CC(O)(C(=O)CO)CC3OC1CC(N)C(O)C(C)O1 (stereo not given) + CNC(=O)c1ccc(Nc2nc(OC3CCCC3)c3c(-c4ccc5nc(C)oc5c4)c[nH]c3n2)c(OC)c1 ? active

====

# Tested on: 855422-203-R-J1-PDC complex spheroids, viability
# Protocol: Anticancer human tumor 855422-203-R-J1-PDC cell line growth inhibition [CLK]; active = viability on the fitted dose curve at most 10% of control; inactive = the rest;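 further: spheroids exposed to drugs for seven days before readout; 100% = DMSO vehicle control wells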
# Condition Details: second compound 1 µM; first compound 0.1 µM
Please reply with one of these outcomes: true (1) = active, false (0) = inactive

[
  {
    "Molecule": "CCc1c2c(nc3ccc(O)cc13)-c1cc3c(c(=O)n1C2)COC(=O)[C@]3(O)CC + CN1CCN(c2cc(C(=O)Nc3cc4cc(-c5cnn(C)c5)ccc4cn3)ccn2)CC1",
    "Class Name": "true (1)"
  },
  {
    "Molecule": "CC1COCCN1c1cc(C2(S(C)(=N)=O)CC2)nc(-c2ccnc3[nH]ccc23)n1 (stereo not drawn) + CN1CCN(c2cc(C(=O)Nc3cc4cc(-c5cnn(C)c5)ccc4cn3)ccn2)CC1",
    "Class Name": "true (1)"
  }
]

I would be grateful if you could indicate the recorded call for CC1COCCN1c1cc(C2(S(C)(=N)=O)CC2)nc(-c2ccnc3[nH]ccc23)n1 (stereo not drawn) + CNC(=O)c1ccc(Nc2nc(OC3CCCC3)c3c(-c4ccc5nc(C)oc5c4)c[nH]c3n2)c(OC)c1 . false (0)
